Listed here: items and their measured melting point.

// query Need melting point, item Cc1cc(C(=O)N2Cc3ccc(C(=O)NCc4cccnc4)n3Cc3ccccc32)ccc1-c1ccccc1
// result 108 to 112 °C

====

Reported Metric: melting point (°C)

The examples below pair each entry with its known result.
>  <Compound>
CCOC(=O)C1=C(C)NC(CO)=C(C(=O)OCC)C1c1ccccc1Cl (stereo unspecified)

>  <Reported Metric>
melting point

>  <Observed Value>
143

$$$$
>  <Compound>
CN(C)C(=O)NC1(Cc2ccccc2)CCN(Cc2ccccc2)CC1

>  <Reported Metric>
melting point

>  <Observed Value>
131

$$$$
>  <Compound>
COc1cnc(CCl)nc1O

>  <Reported Metric>
melting point

>  <Observed Value>
87

$$$$

P. COC(=O)Cc1ccc(OCCNC(=O)C2Cc3ccccc3N2S(=O)(=O)c2ccc(-c3cccc(C(F)(F)F)c3)c(C)c2)cc1 (stereo unspecified)
Q. CC(C)c1[nH]c2ccccc2c1Sc1ccc(O)cc1
// query Rank P against Q by their melting point values and give the higher one. The response must carry the label of the picked entry.
// result Q
(Q: 116 °C, P: 60 °C)

====

Parameter: melting point. Scope: all listed entries.

Use these answered entries as a reference point.
>  <Molecule>
O=Cc1ccccc1SSc1ccccc1C=O

>  <Observed Value>
145 °C

$$$$
>  <Molecule>
O=C1N=c2cc(Cl)c(Cl)cc2=NC1=O

>  <Observed Value>
> 400 °C

$$$$
>  <Molecule>
N#Cc1ccc(NC(=O)c2c(O)ccc3ccccc23)c(OC(F)(F)F)c1

>  <Observed Value>
169 °C

$$$$
>  <Molecule>
CC[Si](CC)(CC)c1ccccc1S(=O)(=O)NC(=O)Nc1nc(OC)cc(OC)n1

>  <Observed Value>
136 °C

$$$$

// query Which melting point value is on record for CCN(CC)CCOc1ccc(Oc2ccc(S(C)(=O)=O)cc2)cc1 ?
// result 92.5 to 94 °C

// query Return reported melting point; argument: COc1cc(C=O)ccc1OCc1nc(N2CCOCC2)sc1C
// result 127 to 128 °C

// query Which melting point reading was recorded for the molecule Cc1ccc(O[C@@H]2CCNC[C@H]2O)cc1C (relative stereo) ?
// result 125 to 127 °C

// query Given the entry O=C(C=Cc1ccccn1)N1CCc2c([nH]c3ccccc23)C1c1ccc2c(c1)OCO2 (stereo unspecified) , report its measured melting point.
// result 135 to 141 °C

// query Given the molecule CCCCCCCCCCCCCCCCOc1cc(NS(=O)(=O)c2cc([N+](=O)[O-])ccc2OCCOC)c(O)cc1C , what is its reported melting point?
// result 85.5 to 86 °C

====

melting point values by entry

Sample answers from the record:
>  <Molecule>
Fc1cccc(-c2ccc(Cl)nn2)c1

>  <melting point>
133 to 135 °C

$$$$
>  <Molecule>
CC(=O)Nc1cc(F)ccc1F

>  <melting point>
124 to 125 °C

$$$$

Now for the molecule whose melting point we want.
// query Recorded melting point of O=[N+]([O-])c1ccccc1C#Cc1c(F)c(F)nc(F)c1F , please.
// result 109 to 110 °C

====

# melting point annotations

Known results for compounds:
>  <Compound>
N=C(N)NCCSCc1nccs1

>  <Reported Metric>
melting point

>  <Observed Value>
120 to 122 °C

$$$$
>  <Compound>
Cc1oc(-c2ccc(OCC(F)(F)F)cc2)nc1COc1ccc(CN(O)C(N)=O)cc1

>  <Reported Metric>
melting point

>  <Observed Value>
159 to 161 °C

$$$$
>  <Compound>
Cn1c(C(F)(F)F)cc(=O)n(-c2cc(OCc3ccc(C(C)(C)C)cc3)c(Cl)cc2F)c1=O

>  <Reported Metric>
melting point

>  <Observed Value>
156 to 158 °C

$$$$
>  <Compound>
O=C(NCc1ccccc1-c1ccccc1C(=O)NCCc1ccccn1)OCc1ccccc1

>  <Reported Metric>
melting point

>  <Observed Value>
140 °C

$$$$
>  <Compound>
Cc1cccc(NC(=O)NCC(=O)N(CC(=O)N2CCC3(CCCC3)CC2)c2ccccc2)c1

>  <Reported Metric>
melting point

>  <Observed Value>
183 °C

$$$$

// query Which melting point is reported for this compound? Cc1cc(C(N)=NO)ccc1[N+](=O)[O-]
// result 127 to 129 °C

// query Name the reported melting point value associated with the compound Cc1nc2c3c(ccn2c1C)C(O)CC(c1ccsc1)N3 (stereo not given)
// result 192 to 194 °C
